Target: SARS-CoV-2 Receptor Binding Domain (RBD) protein (SARS-CoV-2, UniProt P0DTC2 319-541)
Test: SPR, scFv captured via anti-V5, RBD as analyte
Overview of recorded koff for various binders
readout.kind: koff (s⁻¹)

[[record]]
binder = "COVID19_P19_B08 (scFv, V domains shown) VH: EVQLVESGGGLVQPGGSLRLSCAASGFTFSDHYMDWVRQAPGKGLEWVAAIGASGESTYYADSVKGRFTISRDNSKNTLYLQMNSLRAEDTAVYYCVTQRDNSRDYFPLWFHDMDVWGQGTLVTVSS VL: DIVMTQSPLSLPVTPGEPASISCRSSQSLLYSDGDTYLDWYLQKPGQSPQLLIYLGSIRAPGVPDRFSGSGSGTDFTLKISRVEAEDVGVYYCMQSIQTPWTFGGGTKVEIKR"
measure_unit = "s⁻¹"
observed = 0.00685

[[record]]
binder = "COVID19_P07_G06 (scFv, V domains shown) VH: EVQLVESGGGLVQPGGSLRLSCAASGFTFSSYAMHWVRQAPGKGLEWVSAIGAGGGTYYADSVKGRFTISRDNSKNTLYLQMNSLRAEDTAVYYCVTNLDNSRDYFPHYFHDMDVWGQGTLVTVSS VL: DIVMTQSPLSLPVTPGEPASISCRSSQSLLHSNGYNYLDWYLQKPGQSPQLLIYGASTRATGVPDRFSGSGSGTDFTLKISRVEAEDVGVYYCMQTLQTPRFGGGTKVEIKR"
measure_unit = "s⁻¹"
observed = "5.7e-05"

[[record]]
binder = "COVID19_P07_D04 (scFv, V domains shown) VH: EVQLVESGGGLVQPGGSLRLSCAASGFRFSDHPMHWVRQAPGKGLEWVAVITGSGRNKFYADSVKGRFTISRDNSKNTLYLQMNSLRAEDTAVYYCVTNMDNSRDYFPHYFHDMDVWGQGTLVTVSS VL: DIVMTQSPLSLPVTPGEPASISCRSSQSLLHRNGYNYLDWYLQKPGQSPQLLIYGASTRATGVPDRFSGSGSGTDFTLKISRVEAEDVGVYYCTQSLQTPLTFGGGTKVEIKR"
measure_unit = "s⁻¹"
observed = "5.7e-05"


Values were extracted from patent US11053304.
